Test system: aldose reductase (Rattus norvegicus, UniProt P07943)
Readout kind: pIC50
Just the number, please; pIC50 means minus log10 of the concentration in mol/L.

Past entries and their recorded results:
CS(=O)(=O)Nc1ccsc1-c1nnnn1CC(=O)O [Example 2-39]: 7.55
CC(=O)Nc1ccsc1-c1nnnn1CC(=O)O [Example 2-17]: 7.55

# input Look up and state reported pIC50 for O=C(O)Cn1nnnc1-c1sccc1NC(=O)CCc1ccccc1 [Example 2-19]
# output 7.62

# input Complete the entry with pIC50 for COC(=O)Cn1nnnc1-c1sccc1NS(=O)(=O)c1ccccc1 [Example 1-27]
# output 6.64

# input Write down pIC50 measured for item O=C(O)Cn1nnnc1-c1ccc(Br)s1 [Example 2-11]
# output 7.72

# input Quote pIC50 reported for Cc1ccc(-c2nnnn2CC(=O)O)o1 [Example 2-27] please.
# output 6.82

* * *

Tested on: accumulation of sorbitol in sciatic nerve
Procedure text: Inhibiting the accumulation of sorbitol in sciatic nerve of streptozotocin diabetic rats
Assay type: in vivo, Sprague-Dawley male rats
Measurement setup: 10 mg/kg oral, twice a day for 5 days
# label = rule met if Rate of Inhibition of Sorbitol Accumulation < 60% else rule not met

O=C(O)Cn1nnnc1-c1ccoc1 [Example 2-7, [5-(3-furyl)tetrazol-1-yl] acetic acid]: rule met
O=C(O)Cn1nnnc1-c1ccsc1 [Example 2-5, [5-(3-thienyl)tetrazol-1-yl] acetic acid]: rule not met
CC(/C=C1\SC(=S)N(CC(=O)O)C1=O)=C\c1ccccc1 [ONO-2235, reference compound]: rule met
Cc1ccsc1-c1nnnn1CC(=O)O [Example 2-2]: rule not met

# input I'd appreciate it if you could check whether O=C(O)Cn1nnnc1-c1cccs1 [Example 2-1] has Rate of Inhibition of Sorbitol Accumulation smaller than 60%.
# output rule not met

* * *

Test system: aldose reductase (Rattus norvegicus, UniProt P07943)
We begin with a simple list: items and their reported pIC50.
Please keep in mind that pIC50 is minus log10 of the molar concentration; only the number is needed.

CCCCS(=O)(=O)Nc1ccsc1-c1nnnn1CC(=O)O [Example 2-40]: 7.80

# input Report measured pIC50 on aldose reductase (Rattus norvegicus, UniProt P07943); entry: COc1ccsc1-c1nnnn1CC(=O)O [Example 2-15]
# output 7.54

# input Jot down pIC50 (aldose reductase (Rattus norvegicus, UniProt P07943)) of O=C(O)Cn1nnnc1-c1ccoc1 [Example 2-7, [5-(3-furyl)tetrazol-1-yl] acetic acid] .
# output 7.52

# input GET pIC50 | system: aldose reductase (Rattus norvegicus, UniProt P07943) | item: Cc1ccc(-c2nnnn2CC(=O)O)s1 [Example 2-4]
# output 7.64

# input Report pIC50 under test system aldose reductase (Rattus norvegicus, UniProt P07943) for O=C(O)Cn1nnnc1-c1ccsc1Br [Example 2-24] .
# output 7.42

# input Report value: pIC50, system: aldose reductase (Rattus norvegicus, UniProt P07943), compound: CCCCc1ccc(-c2nnnn2CC(=O)O)o1 [Example 2-28]
# output 6.89

# input Output reported pIC50 of the compound O=C(O)Cn1nnnc1-c1cccs1 [Example 2-1] on aldose reductase (Rattus norvegicus, UniProt P07943).
# output 7.80

# input Determine reported pIC50 for O=C(O)Cn1nnnc1-c1ccsc1Sc1ccccc1 [Example 2-33] ; test system: aldose reductase (Rattus norvegicus, UniProt P07943).
# output 7.62

# input Lab note: aldose reductase (Rattus norvegicus, UniProt P07943) assay, enter pIC50 for CCCCc1ccc(-c2nnnn2CC(=O)OC)s1 [Example 3-5] here
# output 6.74

# input Tell me pIC50 of O=C(O)Cn1nnnc1-c1ccoc1Br [Example 2-31] when tested on aldose reductase (Rattus norvegicus, UniProt P07943).
# output 7.07

* * *

Reported IC50, aldose reductase (Rattus norvegicus).
Reply with just the number (in nM).

Look over these answered cases.
C[S+]([O-])c1sccc1-c1nnnn1CC(=O)O (centres unmarked) [Example 2-43]: 300
O=C(O)Cn1nnnc1-c1ccc(-c2ccccc2)s1 [Example 2-14]: 21
CCc1ccc(-c2nnnn2CC(=O)O)s1 [Example 2-8]: 21

# input for lookup
# input State recorded IC50 with aldose reductase (Rattus norvegicus), entry O=C(O)Cn1nnnc1-c1ccsc1 [Example 2-5, [5-(3-thienyl)tetrazol-1-yl] acetic acid] , no comment.
# output 21

* * *

Test system: UniProt:P07943
Readout kind: pIC50
Conceptually, pIC50 converts a concentration in mol/L into minus its log10.

Answered examples (3):
Cc1sccc1-c1nnnn1CC(=O)O [Example 2-12]: 8.00
O=C(O)Cn1nnnc1-c1ccc(Sc2ccccc2)s1 [Example 2-34]: 7.59
CCCCN(CCCC)S(=O)(=O)c1ccc(-c2nnnn2CC(=O)O)s1 [Example 2-36]: 7.07

# input Answer briefly: pIC50 recorded on UniProt:P07943 for COCc1ccc(-c2nnnn2CC(=O)O)s1 [Example 2-22]
# output 7.51

# input Recall the reported pIC50 of Cc1ccsc1-c1nnnn1CC(=O)O [Example 2-2] when tested on UniProt:P07943.
# output 7.74

# input Retrieve pIC50 on UniProt:P07943; query CCN(CC)S(=O)(=O)c1sccc1-c1nnnn1CC(=O)O [Example 2-38]
# output 6.34

# input Would you please give the reported pIC50 of O=C(O)Cn1nnnc1-c1ccc(Br)o1 [Example 2-29] with UniProt:P07943?
# output 6.80
